Data origin, for the record: patent US20190184007A1

Biological target: DQA1*0102:DQB1*0602 (Homo sapiens, UniProt P01909+P01920, A157G/A45G/C70R/E118A/E183D/E77G/F83G/G63E/H151Q/H199R/H252R/H253Q/I129T/I235V/I88M/INS77G/K197Q/L117V/L119F/L178F/L71W/L74F/L85Q/L91A/L98M/N214S/P87R/Q116E/Q76K/R102G/R240Q/R75S/R78G/S102Y/S185I/S41F/S97I/T121G/T122I/T172A/T86R/V229M/V68A/V73E/Y34C/Y41F/Y58L)
Construct: purchased ProImmune (REVEAL technology)
Sequence (P01909 with tags, fused parts or gaps with the stated changes, other chains not shown): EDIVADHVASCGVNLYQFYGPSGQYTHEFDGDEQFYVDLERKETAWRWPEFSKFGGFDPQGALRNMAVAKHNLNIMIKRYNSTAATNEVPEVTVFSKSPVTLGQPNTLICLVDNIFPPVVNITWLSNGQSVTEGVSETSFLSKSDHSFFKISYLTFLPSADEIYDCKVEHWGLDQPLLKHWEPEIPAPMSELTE
Format: binding
Conditions: after 24 hours
MEASUREMENT KIND: REVEAL 24 hours
Could you write the number and then its unit?

Use these answered entries as a reference point.
[
  {
    "CHAIN": "LILYDKEEIRRIWRQ [Peptide #3]",
    "REVEAL 24 hours": "0.4%"
  },
  {
    "CHAIN": "ASGNHAAGILTMGRR (listed as Homo sapiens) [compound 15, Orexin fragment HCRT87-99]",
    "REVEAL 24 hours": "0.2%"
  },
  {
    "CHAIN": "LILYDKEERRRRWRQ [compound 9]",
    "REVEAL 24 hours": "17.3%"
  }
]

Record summary for MNLPSTKVSWAAVTL (listed as Homo sapiens) [compound 10, Orexin DQB1*0602 fragment] : reported REVEAL 24 hours = 0.3%

For this sequence ( IDPFKLLQNSQVVSL [compound 8] ), measured REVEAL 24 hours is 0.1%

// RELILYDKEEIRRIWRQANNG [Peptide #1] : REVEAL 24 hours value = 16.9%

Lab note: VGKMIGGIGRFYIQM [compound 5] gave REVEAL 24 hours of 52.3%

get_value(item= EKATNPIVPSFDMSN [compound 7] , readout=REVEAL 24 hours) returns 0.0%

Per the records, this sequence ( LTVAAWSVKTSPLNM [compound 13] ) has REVEAL 24 hours equal to 0.4%

The sequence identified as LILYDKEEMRRIWRQ [compound 4] registered its REVEAL 24 hours at 0.4%

Summary for this sequence, RELILYDKEEMRRIWRQANNG [compound 2] : REVEAL 24 hours is 0.5%

Entry under test: GAGNHAAGILTLGKR (listed as Homo sapiens) [compound 14, Orexin fragment HCRT56-68] . Its REVEAL 24 hours was 0.1%

====

sequences and their reported REVEAL 0 hrs
Target: DQA1*0101:DQB1*0501 (Homo sapiens, UniProt P01909+P01920, A157S/A45G/A70V/C70R/D89V/E106S/E118A/E183D/E77G/F83G/G63E/H151Q/H199R/H252R/H253Q/I129T/I235V/I88M/INS77G/K197Q/L107V/L117V/L119Y/L178F/L71W/L74F/L85Q/L91A/L98M/M46L/N214S/P87R/Q116E/Q256R/Q57E/Q76K/R102G/R240Q/R75S/R78G/S102Y/S185I/S41F/S97I/T103A/T109R/T121G/T122I/T172A/T86R/V148I/V68A/V73E/Y34C/Y58G/Y62H)
Construct: purchased ProImmune (REVEAL technology)
Sequence (P01909 with tags, fused parts or gaps with the stated changes, other chains not shown): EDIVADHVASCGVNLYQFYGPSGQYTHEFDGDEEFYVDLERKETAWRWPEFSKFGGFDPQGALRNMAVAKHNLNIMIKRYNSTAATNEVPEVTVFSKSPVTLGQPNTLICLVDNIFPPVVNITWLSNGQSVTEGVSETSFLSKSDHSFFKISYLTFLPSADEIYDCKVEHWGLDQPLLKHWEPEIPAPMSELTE
Format: binding

Below: 3 sequences and their reported REVEAL 0 hrs.
[
  {
    "CHAIN": "LILYDKEEIRRIWRQ [Peptide #3]",
    "REVEAL 0 hrs": "4.7%"
  },
  {
    "CHAIN": "RELILYDKEEMRRIWRQANNG [compound 2]",
    "REVEAL 0 hrs": "1.1%"
  },
  {
    "CHAIN": "VGKMIGGIGRFYIQM [compound 5]",
    "REVEAL 0 hrs": "43.6%"
  }
]

Consider ALNRGSGSGIITSDA [compound 17] . Its measured REVEAL 0 hrs is 0.0%

// field: REVEAL 0 hrs; key: LTVAAWSVKTSPLNM [compound 13] ; value = 0.3%

The reported REVEAL 0 hrs of the sequence EKATNPIVPSFDMSN [compound 7] was 0.0%

For LILYDKEERRRRWRQ [compound 9] the sequence record lists REVEAL 0 hrs as 19.0%

====

Target: DQA1*0102:DQB1*0602 (Homo sapiens, UniProt P01909+P01920, A157G/A45G/C70R/E118A/E183D/E77G/F83G/G63E/H151Q/H199R/H252R/H253Q/I129T/I235V/I88M/INS77G/K197Q/L117V/L119F/L178F/L71W/L74F/L85Q/L91A/L98M/N214S/P87R/Q116E/Q76K/R102G/R240Q/R75S/R78G/S102Y/S185I/S41F/S97I/T121G/T122I/T172A/T86R/V229M/V68A/V73E/Y34C/Y41F/Y58L)
Construct: purchased ProImmune (REVEAL technology)
Type: binding
// NO strictly below 2% in REVEAL 0 hrs; YES otherwise

Solved cases (2 shown):
[
  {
    "CHAIN": "EKATNPIVPSFDMSN [compound 7]",
    "ANSWER LABEL": "NO"
  },
  {
    "CHAIN": "ALSRGFGSGIITSNA [compound 18]",
    "ANSWER LABEL": "NO"
  }
]

Exam item: Test whether the sequence VGKMIGGIGRFYIQM [compound 5] records REVEAL 0 hrs of 2% or higher.
Marked response: YES

Exam item: Check the entry LILYDKEEIRRIWRQ [Peptide #3] : does REVEAL 0 hrs equal or exceed 2%?
Marked response: NO

Exam item: Determine whether measured REVEAL 0 hrs meets or exceeds 2% for RELILYDKEEIRRIWRQANNG [Peptide #1]
Marked response: YES

Exam item: Test whether the sequence MNLPSTKVSWAAVTL (listed as Homo sapiens) [compound 10, Orexin DQB1*0602 fragment] records REVEAL 0 hrs of 2% or higher.
Marked response: NO

Exam item: Please tell me: is the sequence MNLPSIKVSWAAVTL [compound 11] at or over 2% in terms of REVEAL 0 hrs?
Marked response: YES

====

Target: DQA1*0101:DQB1*0501 (Homo sapiens, UniProt P01909+P01920, A157S/A45G/A70V/C70R/D89V/E106S/E118A/E183D/E77G/F83G/G63E/H151Q/H199R/H252R/H253Q/I129T/I235V/I88M/INS77G/K197Q/L107V/L117V/L119Y/L178F/L71W/L74F/L85Q/L91A/L98M/M46L/N214S/P87R/Q116E/Q256R/Q57E/Q76K/R102G/R240Q/R75S/R78G/S102Y/S185I/S41F/S97I/T103A/T109R/T121G/T122I/T172A/T86R/V148I/V68A/V73E/Y34C/Y58G/Y62H)
Construct: purchased ProImmune (REVEAL technology)
Type: binding
Conditions: after 24 hours
REVEAL 24 hours: recorded values
Report only the number, with the unit % understood.

Take a look at these entries with their results.
[
  {
    "CHAIN": "LTVAAWSVKTSPLNM [compound 13]",
    "READOUT UNITS": "%",
    "RECORDED RESULT": 0.3
  },
  {
    "CHAIN": "ASGNHAAGILTMGRR (listed as Homo sapiens) [compound 15, Orexin fragment HCRT87-99]",
    "READOUT UNITS": "%",
    "RECORDED RESULT": 0.1
  },
  {
    "CHAIN": "GAGNHAAGILTLGKR (listed as Homo sapiens) [compound 14, Orexin fragment HCRT56-68]",
    "READOUT UNITS": "%",
    "RECORDED RESULT": 0.0
  },
  {
    "CHAIN": "RELILYDKEEMRRIWRQANNG [compound 2]",
    "READOUT UNITS": "%",
    "RECORDED RESULT": 1.0
  },
  {
    "CHAIN": "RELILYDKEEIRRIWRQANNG [Peptide #1]",
    "READOUT UNITS": "%",
    "RECORDED RESULT": 7.4
  },
  {
    "CHAIN": "EKATNPIVPSFDMSN [compound 7]",
    "READOUT UNITS": "%",
    "RECORDED RESULT": 0.0
  },
  {
    "CHAIN": "IDPFKLLQNSQVVSL [compound 8]",
    "READOUT UNITS": "%",
    "RECORDED RESULT": 0.0
  }
]

Field: next sequence
The reported value for VGKMIGGIGRFYIQM [compound 5] in terms of REVEAL 24 hours is 13.9
